- METHOD: Mouse blood levels after oral administration
- Format: in vivo
- CONDITION INFO: blood, oral, 100 mg./kg., 45 minutes after administration, read-out: Blood Level
MEASURE: concentration at 0.75 h (ng/mL)
Please give a number only; it is taken to be in ng/mL.

`CC1(C)S[C@@H]2[C@H](NC(=O)[C@H](N)c3ccc(O)cc3)C(=O)N2[C@H]1C(=O)O` yielded concentration at 0.75 h of 15500

====

- METHOD: in vivo
- CONDITION INFO: mouse, im, 40 mg/kg
MEASURE: concentration at 0.5 h (ng/mL)
Please give a number only; it is taken to be in ng/mL.

CC1(C)S[C@@H]2[C@H](NC(=O)[C@H](N)c3ccccc3)C(=O)N2[C@H]1C(=O)O [Ampicillin] yielded concentration at 0.5 h of 20000

====

- METHOD: Mouse blood levels after oral administration
- Format: in vivo
- CONDITION INFO: blood, oral, 100 mg./kg., 60 minutes after administration, read-out: Blood Level
MEASURE: concentration at 1 h

CC1=C(C(=O)O)N2C(=O)C[C@H]2S1 (racemic) yielded concentration at 1 h of < 4300 ng/mL

====

- METHOD: Mouse blood levels after oral administration
- Format: in vivo
- CONDITION INFO: in vivo, po, 100 mg/kg
MEASURE: concentration at 1 h (ng/mL)
Please give a number only; it is taken to be in ng/mL.

`CC1(C)S[C@@H]2[C@H](NC(=O)[C@H](N)c3ccccc3)C(=O)N2[C@H]1C(=O)O` yielded concentration at 1 h of 7900

====

- METHOD: Mouse blood levels after oral administration
- Format: in vivo
- CONDITION INFO: in vivo, po, 100 mg/kg
MEASURE: concentration at 0.75 h (µg/mL)
Please give a number only; it is taken to be in µg/mL.

`CC1(C)S[C@@H]2[C@H](NC(=O)[C@H](N)c3ccccc3)C(=O)N2[C@H]1C(=O)O` yielded concentration at 0.75 h of 6.1
